Answer each item with its documented half-life (t1/2).
- System name: T1, phosphorylated human tau protein (human, UniProt P10636-8 1-441, limits assumed, S422 phosphorylation)
- T1 construct: also called pTau
- T1 sequence (P10636 other isoform, or with tags, fused parts or gaps limits assumed): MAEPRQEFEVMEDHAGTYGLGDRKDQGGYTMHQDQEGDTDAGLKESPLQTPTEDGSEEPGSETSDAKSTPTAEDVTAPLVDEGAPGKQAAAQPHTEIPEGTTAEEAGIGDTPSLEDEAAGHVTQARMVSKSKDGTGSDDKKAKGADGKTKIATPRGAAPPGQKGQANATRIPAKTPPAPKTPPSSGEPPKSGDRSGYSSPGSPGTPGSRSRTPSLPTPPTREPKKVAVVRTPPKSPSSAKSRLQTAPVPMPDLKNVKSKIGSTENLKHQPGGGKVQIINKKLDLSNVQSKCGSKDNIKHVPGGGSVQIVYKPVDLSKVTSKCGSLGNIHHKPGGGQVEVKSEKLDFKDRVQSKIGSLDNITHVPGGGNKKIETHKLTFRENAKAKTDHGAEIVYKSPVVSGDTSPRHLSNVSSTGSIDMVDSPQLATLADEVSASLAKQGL
- Method summary: SPR (BIAcore), captured antibody
Write down the numeric answer in min and omit the unit.

IN: Reported half-life (t1/2) for Rb86 variant: HC Rb86 / LC 012--IMGT_hVK_1_17 (antibody, V domains shown) VH: QSVEESGGRLVTPGTPLTLTCTVSGFSLSSNAINWVRQAPGKGLEWIGYIAVSGNTYYASWAKGRFTISKASTTVDLKMTSPTAEDTGTYFCGKSNIWGPGTLVTVSL VL: DIQMTQSPSSLSASVGDRVTITCRASQGVRTNKLAWFQQKPGQPPKRLIYSASTLQSGVPSRFSGSGSGTEFTLTISSLQPEDFATYYCLGYFDCSIADCVAFGGGTKVEIK : what is it?
OUT: 15.9

IN: Param item: Rb86 variant: HC 001_IGHV3_23_04 / LC 001--IMGT_hVK_1_5 (antibody, V domains shown) VH: QQLVESGGGLVQPGGSLRLSCAASGFSLSSNAINWVRQAPGKGLEWVGYIAVSGNTYYASWAKGRFTISRDNSKNTLYLQMNSLRAEDTAVYYCGKSNIWGQGTLVTVSS VL: DIQMTQSTSTLSASVGDRVTITCQSSQSVRTNKLAWFQQKPGKAPKRLIYSASTLDFGVPSRFSGSGSGTEFTLTISSLQPDDFATYYCLGYFDCSIADCVAFGGGTKVEIK
OUT: 3.41
